Cited source for all entries: PubChem BioAssay (Tox21)

biological target: D(2) dopamine receptor (Homo sapiens); assay: Dopamine D2 receptor (DRD2) small molecule antagonists, cell-based qHTS assay (AID 1963595); details: HEK293-DRD2 cAMP HTRF antagonist mode; series mostly up to 92.4 µM; note: potency is the fitted concentration of half-maximal effect
Records with an inconclusive call do not appear. Active and inactive are the calls of the source. Calls come from the whole dose curve; as a rule, active = well fitted inhibition curve with a large enough effect in the signal ratio in the repeat runs, with a control signal flat; inconclusive = weak or mixed curves, or effect the other way; inactive = flat fitted curve, though single readings scatter; the % refers to the signal ratio.
Observable: Potency

[
  {
    "Compound": "CC1=C(C(=O)O)N2C(=O)[C@@H](NC(=O)[C@H](N)C3=CCC=CC3)[C@H]2SC1",
    "Tgt": "D(2) dopamine receptor (Homo sapiens)",
    "Potency": "inactive"
  },
  {
    "Compound": "CC(CN=Cc1ccccc1O)N=Cc1ccccc1O (stereo unspecified)",
    "Tgt": "D(2) dopamine receptor (Homo sapiens)",
    "Potency": "inactive"
  },
  {
    "Compound": "CC(C)NCC(O)COc1cccc2[nH]ccc12 (stereo unspecified)",
    "Tgt": "D(2) dopamine receptor (Homo sapiens)",
    "Potency": "inactive"
  },
  {
    "Compound": "c1cc[c]([Bi]([c]2ccccc2)[c]2ccccc2)cc1",
    "Tgt": "D(2) dopamine receptor (Homo sapiens)",
    "Potency": "9.69 µM (active)"
  },
  {
    "Compound": "CCNC(=O)/C=C/c1cccc(Br)c1",
    "Tgt": "D(2) dopamine receptor (Homo sapiens)",
    "Potency": "inactive"
  }
]

Now let's try a different one.
stdin: Jot down Potency (D(2) dopamine receptor (Homo sapiens)) of CC/C=C1/OC(=O)c2ccccc21 .
stdout: inactive
